Give measured protein stability index for each item. Keep answers brief.
B1: RTP4 (parent)
chain: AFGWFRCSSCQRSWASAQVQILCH

Variants of: B1
ASSAY_TEXT: protein stability index of a GFP-peptide fusion (GPS, HEK-293T) (PSI 1-6); higher = more stable;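 note: lentivirally expressed fusions sorted by FACS into six bins by GFP to DsRed ratio, PSI derived from sequencing read proportions per bin multiplied by bin number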
TEST_CONTEXT: c terminus: a fixed tail appended
Give bare numbers.

Observe how each entry below is paired with its result.
>>> recorded_number("F2T")
2.73
>>> recorded_number("C23T")
1.93
>>> recorded_number("W4E")
1.91

The value of protein stability index measured for the variant H24I turned out to be 3.64
